Target: Xanthine dehydrogenase/oxidase (Bos taurus, UniProt P80457)
Sequence (P80457 whole entry): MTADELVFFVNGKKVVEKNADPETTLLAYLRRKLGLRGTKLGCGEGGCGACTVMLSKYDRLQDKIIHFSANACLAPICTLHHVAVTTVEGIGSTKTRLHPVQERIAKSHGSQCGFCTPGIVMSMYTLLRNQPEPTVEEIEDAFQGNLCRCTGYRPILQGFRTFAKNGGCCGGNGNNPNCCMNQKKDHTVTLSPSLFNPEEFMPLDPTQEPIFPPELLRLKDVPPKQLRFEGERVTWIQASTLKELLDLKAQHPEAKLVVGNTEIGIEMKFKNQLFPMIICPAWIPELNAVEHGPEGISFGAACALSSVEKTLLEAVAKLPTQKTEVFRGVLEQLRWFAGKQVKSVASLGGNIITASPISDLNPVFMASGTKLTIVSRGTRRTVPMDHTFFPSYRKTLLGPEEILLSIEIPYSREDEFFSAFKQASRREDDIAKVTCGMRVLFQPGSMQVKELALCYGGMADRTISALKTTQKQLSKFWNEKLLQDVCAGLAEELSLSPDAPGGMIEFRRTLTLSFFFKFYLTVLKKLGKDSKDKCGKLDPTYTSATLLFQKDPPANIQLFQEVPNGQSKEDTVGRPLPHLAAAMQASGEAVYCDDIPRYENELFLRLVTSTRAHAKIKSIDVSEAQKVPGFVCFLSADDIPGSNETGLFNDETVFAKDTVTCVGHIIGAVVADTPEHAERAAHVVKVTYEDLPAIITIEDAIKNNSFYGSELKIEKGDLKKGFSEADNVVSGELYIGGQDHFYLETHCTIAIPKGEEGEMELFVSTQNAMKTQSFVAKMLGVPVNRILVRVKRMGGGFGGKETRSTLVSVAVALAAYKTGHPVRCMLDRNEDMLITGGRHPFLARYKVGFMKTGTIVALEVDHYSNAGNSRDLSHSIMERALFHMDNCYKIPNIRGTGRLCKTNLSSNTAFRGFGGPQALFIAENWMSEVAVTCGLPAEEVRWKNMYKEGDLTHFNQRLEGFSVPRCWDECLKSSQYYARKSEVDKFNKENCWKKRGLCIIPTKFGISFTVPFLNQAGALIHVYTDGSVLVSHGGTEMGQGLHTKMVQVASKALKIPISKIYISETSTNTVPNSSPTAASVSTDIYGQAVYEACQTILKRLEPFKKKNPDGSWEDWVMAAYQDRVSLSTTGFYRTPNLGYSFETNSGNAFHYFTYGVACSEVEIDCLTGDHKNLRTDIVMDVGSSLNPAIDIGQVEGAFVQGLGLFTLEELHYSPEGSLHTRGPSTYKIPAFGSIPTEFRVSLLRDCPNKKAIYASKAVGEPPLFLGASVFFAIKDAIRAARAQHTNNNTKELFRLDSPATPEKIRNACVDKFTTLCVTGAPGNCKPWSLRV
Assay: Inhibition of bovine xanthine oxidase assessed as reduction in uric acid levels at 50 uM using xanthine as substrate after 120 mins by spectrophotometry
Settings: cattle, 2 h
Answer each item with its documented inhibition at 50 µM.
Answers are plain numbers, in %.

O=Cc1cccc(OCc2cn(Cc3ccc4c(c3)C(=O)c3ccccc3C4=O)nn2)c1
77.2
O=C(O)c1ccccc1OCc1cn(Cc2ccc3c(c2)C(=O)c2ccccc2C3=O)nn1
24.2
O=C1c2ccccc2C(=O)c2cc(Cn3cc(COc4ccccc4)nn3)ccc21
18.4

I have 6 molecules here; please give me inhibition at 50 µM for each one.
1. O=Cc1cc(Br)ccc1OCc1cn(Cc2ccc3c(c2)C(=O)c2ccccc2C3=O)nn1
2. CC(=O)OCc1cn(Cc2ccc3c(c2)C(=O)c2ccccc2C3=O)nn1
3. O=Cc1ccc(OCc2cn(Cc3ccc4c(c3)C(=O)c3ccccc3C4=O)nn2)cc1
4. O=Cc1ccc(F)cc1OCc1cn(Cc2ccc3c(c2)C(=O)c2ccccc2C3=O)nn1
5. O=C1c2ccccc2C(=O)c2cc(Cn3cc(COc4c(Cl)cccc4Cl)nn3)ccc21
6. CCN(CC)c1ccc(C=O)c(OCc2cn(Cc3ccc4c(c3)C(=O)c3ccccc3C4=O)nn2)c1

[21.1, 19.4, 67.5, 70.8, 12.7, 9.8]
